- TARGET_OR_TEST_SYSTEM: μ receptors (Rattus norvegicus, UniProt P33535)
- Construct: from tissue; host or cells: rat brain membranes
- Sequence (P33535 whole entry): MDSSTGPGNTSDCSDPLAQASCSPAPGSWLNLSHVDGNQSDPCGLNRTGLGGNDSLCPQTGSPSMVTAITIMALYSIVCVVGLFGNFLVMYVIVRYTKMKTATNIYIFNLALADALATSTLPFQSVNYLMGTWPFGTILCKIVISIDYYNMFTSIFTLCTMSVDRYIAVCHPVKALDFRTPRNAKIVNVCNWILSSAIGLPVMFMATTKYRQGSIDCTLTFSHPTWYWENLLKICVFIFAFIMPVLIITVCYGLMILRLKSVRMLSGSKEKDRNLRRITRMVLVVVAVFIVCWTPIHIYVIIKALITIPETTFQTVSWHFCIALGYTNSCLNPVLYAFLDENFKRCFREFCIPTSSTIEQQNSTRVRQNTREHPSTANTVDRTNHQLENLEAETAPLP
- EXPERIMENTAL_DETAILS: μ opioid receptor binding, displacement of [3H]DAMGO in rat brain membranes
- DETAILS: displacement of [3H]DAMGO (1.4-3.0 nM), read-out: K1 (nM) ± SEM μ
METRIC: Ki
The reply should read as a number followed by its unit.

Could you please provide reported Ki for "Oc1ccc2c3c1O[C@H]1c4ncc(-c5ccc(Cl)cc5)cc4C[C@@]4(O)[C@@H](C2)N(CC2CC2)CC[C@]314" ? Thanks!
51 nM
